test system: Blumeria graminis f. sp. tritici; test: Test C: test suspension sprayed on wheat seedlings, inoculated next day with Blumeria graminis f. sp. tritici (wheat powdery mildew); visual disease rating (100 = 100% disease control, 0 = no control; dash = not tested); type: in vivo; conditions: 50 ppm
Endpoint: Test C disease control rating (%)
Write it as a number; the unit % goes unstated.

COc1cc(C#N)c(Cl)c(-c2nn(C)c(=O)c(Cl)c2-c2ccc(F)cc2Cl)c1; 99

Next item in the queue.
Asked: Report measured Test C disease control rating on Blumeria graminis f. sp. tritici; entry: CCc1c(-c2c(F)cccc2F)c(-c2c(F)cccc2F)nn(C)c1=O
Given back: 95

* * *

Test system: Alternaria solani
Experiment: Test F: test suspension sprayed on tomato seedlings, inoculated next day with Alternaria solani (tomato early blight); visual disease rating (100 = 100% disease control, 0 = no control; dash = not tested)
Type: in vivo
Conditions: 50 ppm
Description: The resulting test suspensions were then used in Tests A-F. The test suspension was sprayed to the point of run-off on tomato seedlings. The following day the seedlings were inoculated with a spore suspension of Alternaria solani (the causal agent of tomato early blight) and incubated in a saturated atmosphere at 27° C. for 48 h, and then moved to a growth chamber at 20° C. for 3 days, after which time visual disease ratings were made. […]
# key: entry, value: pest or weed control at 50 ppm
Write it as a number; the unit % goes unstated.

Known pest or weed control at 50 ppm results, listed for orientation:
COc1cc(OC)c(Cl)c(-c2nn(C)c(=O)c(C)c2-c2ccc(F)cc2Cl)c1 [Compound 66]; 100
COc1cc(OC)c(Cl)c(-c2nn(C)c(=O)c(C)c2-c2c(F)cccc2F)c1 [Compound 194]; 99
COc1cc(OC)c(Br)c(-c2nn(C)c(=O)c(Cl)c2-c2ccc(F)cc2Cl)c1 [Compound 77]; 100
COc1ccc(Cl)c(-c2nn(C)c(=O)c(C)c2-c2c(F)cccc2F)c1 [Compound 68]; 100
COc1c(-c2ccc(F)cc2Cl)c(-c2ccccc2)nn(C)c1=O [Compound 142]; 98
CCc1c(-c2ccc(F)cc2Cl)c(-c2cc(OC)ccc2Cl)nn(C)c1=O [Compound 134]; 100
COc1cc(OC)c(Cl)c(-c2nn(C)c(=O)c(OC)c2-c2ccc(F)cc2Cl)c1 [Compound 80]; 100
COc1ccc(Cl)c(-c2nn(C)c(=O)c(C)c2-c2ccc(F)cc2Cl)c1 [Compound 102]; 100

Next item in the queue.
Asked: Quote pest or weed control at 50 ppm reported for Cc1c(-c2ccc(F)cc2Cl)c(-c2ccc(F)cc2Cl)nn(C)c1=O [Compound 44] please.
Given back: 100

* * *

system: Blumeria graminis f. sp. tritici; test: Test C: test suspension sprayed on wheat seedlings, inoculated next day with Blumeria graminis f. sp. tritici (wheat powdery mildew); visual disease rating (100 = 100% disease control, 0 = no control; dash = not tested); assay type: in vivo; conditions: 50 ppm
# key: entry, value: Test C disease control rating
Write it as a number; the unit % goes unstated.

Known Test C disease control rating results, listed for orientation:
COc1cc(OC)c(Cl)c(-c2nn(C)c(=O)c(C)c2-c2ccc(F)cc2Cl)c1Cl [Compound 47]; 43
COc1cc(F)cc(-c2nn(C)c(=O)c(Cl)c2-c2ccc(F)cc2Cl)c1; 99
Cn1nc(-c2ccc(F)cc2Br)c(-c2ccc(F)cc2Cl)c(Cl)c1=O; 99
CCn1nc(-c2cc(OC)cc(OC)c2Cl)c(-c2c(F)cccc2F)cc1=O; 97
Cn1nc(-c2ccc(F)cc2Cl)c(-c2ccc(F)cc2Cl)cc1=O; 76
COc1c(-c2ccc(F)cc2Cl)c(-c2ccc(F)cc2Br)nn(C)c1=O; 98
CC(=O)c1c(-c2ccc(F)cc2Cl)c(-c2ccc(F)cc2Cl)nn(C)c1=O; 95
COc1ccc(Cl)c(C2=NN(C)C(=O)CC2c2c(F)cccc2F)c1 (stereo not drawn); 90

Asked: Quote Test C disease control rating reported for COc1ccc(Cl)c(-c2nn(C)c(=O)c(OC)c2-c2ccc(F)cc2Br)c1 please.
Given back: 100

Asked: Quote Test C disease control rating reported for COc1ccc(Cl)c(-c2nn(C)c(=O)cc2-c2ccc(F)cc2Cl)c1 please.
Given back: 93

Asked: Quote Test C disease control rating reported for Cn1nc(-c2cc(F)ccc2Cl)c(-c2ccc(F)cc2Cl)c(Cl)c1=O please.
Given back: 100

Asked: Quote Test C disease control rating reported for Cn1nc(-c2cc(F)ccc2Br)c(-c2ccc(F)cc2Cl)c(Cl)c1=O please.
Given back: 100
